Documented composite z-score across a set of molecules
system: Human papillomavirus type 1a E7 protein (residues 1-88); experiment: HPV1a E7 small-molecule binders, primary screen, biochemical, small-molecule microarray, residues 1-88, 635 nm (AID 1129); settings: small-molecule microarray binding, fluorescence 635 nm; higher = more signal
readout kind: composite z-score

molecule=COc1ccc([Si](C)(C)[C@@H]2[C@@H](CCO)O[C@]3(C(=O)N(Cc4ccccc4)c4ccccc43)[C@H]2C)cc1 value_reported=0.319
molecule="C=CCC(OC(C)=O)[C@@H]1[C@@H](N(Cc2cccc3ccccc23)C(=O)c2ccc(C)cc2)c2cc(OCCCO)ccc2N1C(=O)c1ccc(-c2ccccc2)cc1 (some centres not stated)" value_reported=-0.0588
molecule=CSCC[C@@H]1NC(=O)CC=C[C@@H](C)COC(=O)[C@H](CCSC)NC(=O)CC=C[C@@H](C)COC1=O value_reported=-0.111
molecule=O=C(NCC(F)(F)F)[C@@H]1c2ccccc2C(=O)N(Cc2ccccc2Cl)[C@H]1c1ccc(CO)cc1 value_reported=-0.778
molecule=CO[C@H]1O[C@H](CO)[C@@H](OC(=O)CCc2ccccc2)[C@@H]2OC(=O)[C@H](Cc3cccc(Br)c3)C/C=C/C[C@@H](Cc3cccc(Br)c3)C(=O)O[C@@H]12 value_reported=0.399
molecule=CC(C)CN1C(=O)[C@@]2(Cc3ccccc31)c1ccccc1C(=O)N(C1CCCCC1)[C@H]2c1ccc(CO)cc1 value_reported=-1.05
molecule=Cc1ccc(S(=O)(=O)c2cc3oc2CC[C@@H](CO)NC(=O)N(C)Cc2cn(nn2)C[C@H](Cc2ccccc2)NC3=O)cc1 value_reported=-0.157

----------
# maps each entry to its z-score
experiment: E. coli acrAB mutant growth effects, primary screen, E. coli filamentation inducers, strain DRC39, OD650, 24 h (AID 1178); conditions: higher = more signal, called active from +8 up or from −8 down;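 further: growth measured as culture turbidity by optical density at 650 nm; test concentration not given here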
readout kind: z-score

compound=COc1ccc(CCNC(=O)[C@@]2(c3ccc([N+](=O)[O-])cc3)CC(=O)N(C(C)C)[C@@H]2c2ccc(CO)cc2)cc1 value_reported=0.793
compound=CCCC=C(CCC)[C@@H](NS(=O)(=O)c1cccc(C(F)(F)F)c1)c1ccc(C(=O)OC)cc1 value_reported=-0.0305
compound=CO[C@H]1COC(=O)[C@H](Cc2ccccc2)NC(=O)CC=C[C@@H](C)[C@H](OC)COC(=O)CC=C[C@@H]1C value_reported=0.373
compound=CC(C)CNC(=O)[C@@]1(C)c2ccccc2C(=O)N(Cc2ccc(OC(F)(F)F)cc2)[C@H]1c1ccc(CO)cc1 value_reported=0.726
compound="C=CCC(OC(C)=O)[C@@H]1[C@@H](N(Cc2cc3ccccc3o2)C(=O)c2ccc(C)cc2)c2cc(OCCCO)ccc2N1C(=O)c1ccc2ccccc2n1 (some centres not stated)" value_reported=1.74
compound=COC(=O)[C@@]1(Cc2ccccc2N=[N+]=[N-])N=C(c2ccc(OCCCO)cc2)O[C@H]1c1ccccc1CN=[N+]=[N-] value_reported=0.23
compound=CSCC[C@@H]1NC(=O)CC=C[C@@H](C)COC(=O)[C@H](CCSC)NC(=O)CC=C[C@@H](C)COC1=O value_reported=-0.251
compound=C=C(CCCC)/C(=C/C[C@H](OC(=O)c1ccncc1)c1cccc(OCCO)c1)c1cc(C(=O)OC)ccc1OC value_reported=-0.232
compound=CC(=O)NCCCC[C@@H]1NC(=O)[C@H]2C[C@@H](C(=O)NCCCCCCN(C)C)[C@@H](c3ccc(O)cc3)N2C1=O value_reported=-1.04
compound="COc1ccc(C(O)C2C=CC3C(=O)N(C)C(=O)C3N2N2CCCCC2)cc1OCc1ccccc1 (configuration not stated)" value_reported=-0.738
compound=CCCC=C(CCC)[C@@H](NC(=O)c1ccccc1)c1ccccc1 value_reported=0.164
compound=CN(C)C(=O)[C@@]1(Cc2ccccc2N=[N+]=[N-])N=C(c2ccc(OCCCO)cc2)O[C@H]1c1ccccc1CN=[N+]=[N-] value_reported=2.45

Reference for the values: PubChem BioAssay
